assay: SDC-TRAP-0063 PK in male SD rats (slow IV bolus); assay type: in vivo; details: of monitored analyte, dosed SDC-TRAP-0063 100 mpk slow IV bolus
measure: Cmax (µM)
Only the number, expressed in µM, is required.

Entry CCc1c2c(nc3ccc(OC(=O)N4CCC(CCn5ccc6cc(-n7c(O)nnc7-c7cc(C(C)C)c(O)cc7O)ccc65)CC4)cc13)-c1cc3c(c(=O)n1C2)COC(=O)C3(O)CC (stereo not shown) has what Cmax?
1210

###

assay: Stability in cell culture media (Example 18)
Use 1 when the recorded Media (5 μM) % Remaining 19 h (37° C.) is no lower than 40%; use -1 when it is lower.

Reference set (2 entries):
• CCc1c2c(nc3ccc(OC(=O)N4CCN(c5ccc(-n6c(O)nnc6-c6cc(C(C)C)c(O)cc6O)cc5)CC4)cc13)-c1cc3c(c(=O)n1C2)COC(=O)C3(O)CC (stereo not drawn) = 1
• CCc1c2c(nc3ccc(OC(=O)N(C)CCOCCn4ccc5cc(-n6c(O)nnc6-c6cc(C(C)C)c(O)cc6O)ccc54)cc13)-c1cc3c(c(=O)n1C2)COC(=O)C3(O)CC (stereo not drawn) = -1

Hello, I need to know if CCc1c2c(nc3ccc(O)cc13)-c1cc3c(c(=O)n1C2)COC(=O)C3(CC)OC(=O)N(C)CCOCCn1ccc2cc(-n3c(O)nnc3-c3cc(C(C)C)c(O)cc3O)ccc21 (stereo not drawn) has measured Media (5 μM) % Remaining 19 h (37° C.) not below 40%. Thanks!
-1

Check the entry CCc1c2c(nc3ccc(OC(=O)N4CCN(Cc5ccc(-n6c(O)nnc6-c6cc(C(C)C)c(O)cc6O)cc5)CC4)cc13)-c1cc3c(c(=O)n1C2)COC(=O)C3(O)CC (stereo not drawn) : does Media (5 μM) % Remaining 19 h (37° C.) equal or exceed 40%?
-1

Answer whether Media (5 μM) % Remaining 19 h (37° C.) of CCc1c2c(nc3ccc(O)cc13)-c1cc3c(c(=O)n1C2)COC(=O)[C@]3(O)CC [SN-38, reference compound] is greater than or equal to 40%.
1
